- System: C. albicans (CCM 8186) biofilm
- experiment summary: Biofilm inhibition assay (MTT)
- Assay type: cell-based, Candida albicans
- condition parameters: C. albicans biofilm development, 24 h post-inoculation
Where a SMILES comes first, the peptide text is derived from it. [ ]: non-standard residue; d: D form. The star is where a group is joined. Palmitoyl = CCCCCCCCCCCCCCCC(=O)*; Lauroyl = CCCCCCCCCCCC(=O)*; Pentanoyl = CCCCC(=O)*; AEEA = NCCOCCOCC(=O)O; Ahx = NCCCCCC(=O)O; βAla = NCCC(=O)O
Listed next: entries and their corresponding BIC50.
measured attribute: BIC50 (µg/mL)

# compound, u, comparison operator, test result
records = [
    ("CCCCC(=O)NCCC(=O)N[C@@H](Cc1c[nH]cn1)C(=O)NCCOCCOCC(=O)N[C@H](C(=O)N[C@@H](CCCCN)C(=O)N[C@@H](CCCCN)C(=O)N[C@H](C(=O)N[C@@H](CC(C)C)C(=O)N[C@@H](CO)C(=O)N[C@@H](CCCCN)C(=O)N[C@H](C(=O)N[C@@H](CCCCN)C(=O)N[C@@H](CCCCN)C(=O)N[C@@H](CC(C)C)C(=O)N[C@@H](CC(C)C)C(N)=O)[C@@H](C)CC)[C@@H](C)CC)[C@@H](C)CC [C5-CAR-PEG-DK5] ({Pentanoyl-βAla}-H[AEEA]IKKILSKIKKLL-NH2)", "µg/mL", ">", 50),
    ("CC[C@H](C)[C@H](NC(=O)CCCCCN)C(=O)N[C@@H](CCCCN)C(=O)N[C@@H](CCCCN)C(=O)N[C@H](C(=O)N[C@@H](CC(C)C)C(=O)N[C@@H](CO)C(=O)N[C@@H](CCCCN)C(=O)N[C@H](C(=O)N[C@@H](CCCCN)C(=O)N[C@@H](CCCCN)C(=O)N[C@@H](CC(C)C)C(=O)N[C@@H](CC(C)C)C(N)=O)[C@@H](C)CC)[C@@H](C)CC [AHX-DK5] (H-[Ahx]IKKILSKIKKLL-NH2)", "µg/mL", "=", 25),
    ("CC[C@H](C)[C@H](NC(=O)COCCOCCNC(=O)[C@H](Cc1c[nH]cn1)NC(=O)CCN)C(=O)N[C@@H](CCCCN)C(=O)N[C@@H](CCCCN)C(=O)N[C@H](C(=O)N[C@@H](CC(C)C)C(=O)N[C@@H](CO)C(=O)N[C@@H](CCCCN)C(=O)N[C@H](C(=O)N[C@@H](CCCCN)C(=O)N[C@@H](CCCCN)C(=O)N[C@@H](CC(C)C)C(=O)N[C@@H](CC(C)C)C(N)=O)[C@@H](C)CC)[C@@H](C)CC [CAR-PEG-DK5] (H-[βAla]H[AEEA]IKKILSKIKKLL-NH2; N-terminus and C-terminus assumed)", "µg/mL", "=", 50),
    ("CCCCC(=O)N[C@H](C(=O)N[C@@H](CCCCN)C(=O)N[C@@H](CCCCN)C(=O)N[C@H](C(=O)N[C@@H](CC(C)C)C(=O)N[C@@H](CO)C(=O)N[C@@H](CCCCN)C(=O)N[C@H](C(=O)N[C@@H](CCCCN)C(=O)N[C@@H](CCCCN)C(=O)N[C@@H](CC(C)C)C(=O)N[C@@H](CC(C)C)C(N)=O)[C@@H](C)CC)[C@@H](C)CC)[C@@H](C)CC [Compound C5-DK5] (Pentanoyl-IKKILSKIKKLL-NH2)", "µg/mL", "=", 10),
    ("CCCCCCCCCCCCCCCC(=O)N[C@H](C(=O)N[C@@H](CCCCN)C(=O)N[C@@H](CCCCN)C(=O)N[C@H](C(=O)N[C@@H](CC(C)C)C(=O)N[C@@H](CO)C(=O)N[C@@H](CCCCN)C(=O)N[C@H](C(=O)N[C@@H](CCCCN)C(=O)N[C@@H](CCCCN)C(=O)N[C@@H](CC(C)C)C(=O)N[C@@H](CC(C)C)C(N)=O)[C@@H](C)CC)[C@@H](C)CC)[C@@H](C)CC [Compound C16-DK5] (Palmitoyl-IKKILSKIKKLL-NH2)", "µg/mL", ">", 50),
    ("CC[C@H](C)[C@H](NC(=O)COCCOCCNC(=O)[C@H](Cc1c[nH]cn1)NC(=O)CCNC(=O)CCCCCN)C(=O)N[C@@H](CCCCN)C(=O)N[C@@H](CCCCN)C(=O)N[C@H](C(=O)N[C@@H](CC(C)C)C(=O)N[C@@H](CO)C(=O)N[C@@H](CCCCN)C(=O)N[C@H](C(=O)N[C@@H](CCCCN)C(=O)N[C@@H](CCCCN)C(=O)N[C@@H](CC(C)C)C(=O)N[C@@H](CC(C)C)C(N)=O)[C@@H](C)CC)[C@@H](C)CC [AHX-CAR-PEG-DK5] (H-[Ahx][βAla]H[AEEA]IKKILSKIKKLL-NH2)", "µg/mL", ">", 50),
    ("CCCCCCCCCCCC(=O)N[C@H](C(=O)N[C@@H](CCCCN)C(=O)N[C@@H](CCCCN)C(=O)N[C@H](C(=O)N[C@@H](CC(C)C)C(=O)N[C@@H](CO)C(=O)N[C@@H](CCCCN)C(=O)N[C@H](C(=O)N[C@@H](CCCCN)C(=O)N[C@@H](CCCCN)C(=O)N[C@@H](CC(C)C)C(=O)N[C@@H](CC(C)C)C(N)=O)[C@@H](C)CC)[C@@H](C)CC)[C@@H](C)CC [Compound C12-DK5] (Lauroyl-IKKILSKIKKLL-NH2)", "µg/mL", "=", 6.25),
    ("CCCCCCCCCCCCCCCC(=O)NCCC(=O)N[C@@H](Cc1c[nH]cn1)C(=O)NCCOCCOCC(=O)N[C@H](C(=O)N[C@@H](CCCCN)C(=O)N[C@@H](CCCCN)C(=O)N[C@H](C(=O)N[C@@H](CC(C)C)C(=O)N[C@@H](CO)C(=O)N[C@@H](CCCCN)C(=O)N[C@H](C(=O)N[C@@H](CCCCN)C(=O)N[C@@H](CCCCN)C(=O)N[C@@H](CC(C)C)C(=O)N[C@@H](CC(C)C)C(N)=O)[C@@H](C)CC)[C@@H](C)CC)[C@@H](C)CC [C16-CAR-PEG-DK5] ({Palmitoyl-βAla}-H[AEEA]IKKILSKIKKLL-NH2)", "µg/mL", "=", 25),
]
